Experiment: NIH3T3 cell viability loss – ATP luminescence, mouse fibroblasts, counter-screen, dose response (AID 2010);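 further: cells exposed to compound for about 90 hours before reading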
Format: functional, cell-based
Calls of active or inactive are those of the source.
molecules and their reported EC50

{"columns": ["molecule", "recorded result"],
 "data": [
  ["O=C(Cn1ncc(Cl)c(Cl)c1=O)N1CCN(Cc2ccccc2)CC1", "2.06 µM (active)"],
  ["COC(=O)N/N=C/c1ccc([N+](=O)[O-])o1", "> 60 µM (not active)"],
  ["Cc1c(C(=O)Nc2ccc(S(=O)(=O)N(C)C3CCN(C)CC3)cc2)oc2c(Cl)cccc12", "> 30 µM (not active)"]
]}

Quickly give me recorded EC50 for Cc1ccc(NC(=O)c2c(C(F)(F)F)nn(C)c2SCc2ccc(Cl)cc2)cc1C
> 60 µM (not active)

###

Each entry below carries its reported EC50.
Test system: H4
Assay: Luminescence Cell-Based Dose Response HTS to Identify Activators of 5'UTR Stem-Loop Driven Prion Protein mRNA Translation in H4 Neuroglioblastoma Cells. [Related pubchem assays: 1829 (Project Summary), 1814 (Primary HTS)]
Assay type: functional
Settings: Homo sapiens
Calls of active or inactive are those of the source.

{"columns": ["molecule", "measured parameter", "recorded result"],
 "data": [
  ["O=C(N/N=C/c1ccc2nccnc2c1)c1ccccc1O", "EC50", "44.2 µM (active)"],
  ["CCOC(=O)c1cc(-c2ccccc2)nn1Cc1cc(CC)no1", "EC50", "89.1 µM (active)"],
  ["Cc1cccc(-n2ncc3c(NCc4ccco4)ncnc32)c1", "EC50", "64.9 µM (active)"],
  ["CCc1ccc(/C=C2/C(=O)N(C)C(=S)N2CC(=O)OC)s1", "EC50", "> 120 µM (not active)"],
  ["Cn1c(=O)c(C(=O)NC2CCCCCCC2)c(O)c2ccccc21", "EC50", "> 120 µM (not active)"]
]}

Now look at this entry.
In one line, give reported EC50 of the entry CS(=O)(=O)N1N=C(c2ccc(Br)cc2)CC1c1ccc2c(c1)OCO2 (stereo unspecified) .
< 0.1 µM (active)

###

Assay: viability of uninfected HEp-2 cells – cell-based, HTS, cytotoxicity control for RSV inhibitor project, dose response (AID 2410)
Type: functional
Conditions: human respiratory syncytial virus
Calls of active or inactive are those of the source.
measured parameter: CC50

Please review the entries below; each comes with its answer.
{"columns": ["compound structure string", "recorded result"],
 "data": [
  ["COc1ccc(-c2nc3c(c(=O)[nH]c(=O)n3Cc3ccccc3)n2Cc2ccccc2)cc1", "7.31 µM (active)"],
  ["Cc1nc(N2CCOCC2)c(C#N)c(C)c1Br", "30.6 µM (active)"]
]}

Annotate the compound COc1ccc(-c2cc(C(F)(F)F)nc(N3CCCCCC3)n2)cc1 with its measured CC50.
28.2 µM (active)

Please give measured CC50 of the following entry: CCOC(=O)c1c(N)sc2c(O)c(Br)ccc12
47 µM (active)

###

Reported IC50 values for a set of compounds
Target: Prothrombin (Homo sapiens, UniProt P00734)
Assay: Thrombin 1536 HTS Dose Response Confirmation. [Related pubchem assays: 1046 (Thrombin 1536 HTS; hits were confirmed in this assay)]
Type: functional
Calls of active or inactive are those of the source.

Field: example entries. Status: answers known.
{"columns": ["compound", "measured parameter", "recorded result"],
 "data": [
  ["Cc1ccc(C2C=C(c3ccccc3)Nc3nc(N4C(=O)CCC4=O)nn32)cc1 (stereo not given)", "IC50", "10.9 µM (active)"],
  ["NC(=O)c1ccsc1NC(=O)CSc1nnc(C2CC2)n1Cc1ccccc1", "IC50", "> 50 µM (not active)"]
]}

Supply IC50 value. Item: O=C(CSc1nc2nncc-2c(O)[nH]1)N1CCCCC1
> 50 µM (not active)

For the compound Cc1ccc2c(c1)CC1(CN2C)C(=O)OC2(CCCCC2)OC1=O , give its measured IC50 value.
4.14 µM (active)

State its IC50: Cc1ccc(C(=O)n2nc(-c3cccnc3)nc2N)cc1
0.543 µM (active)

###

Listed next: entries and their corresponding EC50.
Target: RNA-binding protein pos-1 (Caenorhabditis elegans, UniProt G5EF15)
Sequence (G5EF15 whole entry, the tested form may be a part): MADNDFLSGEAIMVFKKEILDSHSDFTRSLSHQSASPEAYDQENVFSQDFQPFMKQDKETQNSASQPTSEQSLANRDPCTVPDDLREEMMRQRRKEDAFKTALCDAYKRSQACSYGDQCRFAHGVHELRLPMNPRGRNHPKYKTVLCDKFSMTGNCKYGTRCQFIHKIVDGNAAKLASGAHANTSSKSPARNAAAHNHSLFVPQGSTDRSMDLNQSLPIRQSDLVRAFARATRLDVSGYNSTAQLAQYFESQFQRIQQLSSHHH
Experiment: disruptors of C. elegans POS-1 RNA interaction – biochemical, fluorescence polarization, dose response (AID 1964);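 further: purified POS-1 fused to maltose binding protein made in E. coli; potency of compounds blocking POS-1 binding to fluorescent RNA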
Active and inactive are the calls of the source.

Some solved cases for reference:
{"columns": ["molecule", "target of assay", "EC50"],
 "data": [
  ["CCOc1cc(/C=C2\\C(=N)N3N=C(S(C)(=O)=O)SC3=NC2=O)ccc1OCCOc1cccc(OC)c1", "RNA-binding protein pos-1 (Caenorhabditis elegans, UniProt G5EF15)", "> 300 µM (not active)"],
  ["CCOC(=O)/C=c1\\s/c(=C\\c2ccc3cc(OC)ccc3c2)c(=O)n1CC(=O)NCC1CCCO1 (stereo unspecified)", "RNA-binding protein pos-1 (Caenorhabditis elegans, UniProt G5EF15)", "90.4 µM (active)"],
  ["Cc1cc(/C=C2\\C(=O)NC(=O)N(c3ccccc3F)C2=O)c(C)n1-c1cc(C(=O)O)cc(C(=O)O)c1", "RNA-binding protein pos-1 (Caenorhabditis elegans, UniProt G5EF15)", "> 300 µM (not active)"],
  ["CCOc1cc2c(cc1/C=C(/C#N)c1ccc(C(=O)O)cc1)OCO2", "RNA-binding protein pos-1 (Caenorhabditis elegans, UniProt G5EF15)", "> 300 µM (not active)"]
]}

Look up and report EC50, with RNA-binding protein pos-1 (Caenorhabditis elegans, UniProt G5EF15) as system, for CCOC(=O)c1c(-n2c(C)cc(C=C3C(=O)NC(=O)NC3=O)c2C)sc2c1CCCC2
> 300 µM (inconclusive)

Give EC50 only, for CN(C)c1ccc(/C=C/C(=O)c2cccc(Br)c2)cc1 , using RNA-binding protein pos-1 (Caenorhabditis elegans, UniProt G5EF15) data.
> 300 µM (not active)

###

Target: Genome polyprotein (dengue virus type 2, UniProt P29990)
Assay: flavivirus cap methylation enzyme inhibition – biochemical, confirmation dose response, primary screen (AID 588689)
Assay type: functional
Activity calls are given as the source filed them.
measured parameter: IC50

{"columns": ["compound structure string", "recorded result"],
 "data": [
  ["Cc1cc(/C=C2\\C(=O)NC(=O)N(c3ccccc3F)C2=O)c(C)n1-c1cc(C(=O)O)cc(C(=O)O)c1", "63.6 µM (active)"],
  ["CSc1sccc1/C=C(/C#N)C(=O)c1ccco1", "> 100 µM (active)"],
  ["O=C(Nc1ccccc1C(=O)O)c1cccc(C(=O)Nc2ccccc2C(=O)O)c1", "54.9 µM (active)"],
  ["O=[N+]([O-])c1cc([N+](=O)[O-])c2oc(-c3ccccc3)c(Br)c2c1O", "43.8 µM (active)"],
  ["O=[N+]([O-])c1cc(-c2ccccc2)cc([N+](=O)[O-])c1O", "58.8 µM (active)"]
]}

// below: IC50 requested for another compound
Look up and report measured IC50 for this entry: CC(C)c1ccc(Nc2ccc(C(=O)O)cc2[N+](=O)[O-])cc1
70.7 µM (active)

###

Experiment: NIH3T3 cell viability loss – ATP luminescence, mouse fibroblasts, counter-screen, dose response (AID 2010);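 further: cells exposed to compound for about 90 hours before reading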
Assay type: functional, cell-based
The source made the active and inactive calls.
measured parameter: EC50

{"columns": ["compound", "EC50"],
 "data": [
  ["Cc1ccc2[nH]c(C(=O)N/N=C/c3ccccc3O)c(C)c2c1", "6.55 µM (active)"]
]}

Complete the entry with EC50 for Cc1ccc(N/N=C/C=C/c2ccco2)cc1
> 30 µM (not active)

Answer with the recorded EC50 for the compound listed here: CC(C)(C)c1ccccc1OCCN1CCCC1
> 60 µM (not active)

Answer with the recorded EC50 for the compound listed here: O=C(CNc1ccc2ccccc2c1)N/N=C/c1ccc([N+](=O)[O-])o1
> 60 µM (not active)

Please supply the value of reported EC50 for the item CCCn1c(NC(=O)c2ccc([N+](=O)[O-])o2)nc2ccccc21
> 30 µM (not active)

Determine from records and report EC50 for CCN(CC)CCn1c(SCC(=O)NCCC2=CCCCC2)nc2c(sc3ccccc32)c1=O
15.7 µM (active)

###

Assay: cells
Format: functional, cell-based
Calls of active or inactive are those of the source.
measured parameter: EC50

Sample answers from the record:
{"columns": ["molecule", "EC50"],
 "data": [
  ["CCOc1ccc(N2CC(C(=O)Nc3ccccc3C(=O)NC3CC3)CC2=O)cc1 (centres undefined)", "> 350 µM (not active)"],
  ["CCOc1ccc(CCNC(=O)COC(=O)Cn2nc(C)c([N+](=O)[O-])c2C)cc1OCC", "> 350 µM (not active)"],
  ["Cc1onc(-c2ccccc2)c1C(=O)Nc1ccc(S(=O)(=O)N2CCCC2)cc1", "> 350 µM (not active)"]
]}

Proceed to the following item.
Please report EC50 for the following molecule: Cc1ccc2[nH]c(C(=O)N/N=C/c3ccccc3O)c(C)c2c1
6.86 µM (active)

All figures here come from ChEMBL document CHEMBL1201862.
